System: Rhodococcus fascians
Test: Antimicrobial activity against Corynebacterium fascians NCPPB 2551 at 0.0005 molarity/paper disk
Assay type: functional, Rhodococcoides fascians
Result type: inhibition zone (IZ) (mm)
Please respond with the number in mm and leave the unit unwritten.

Example entries begin here.
{"Molecule": "O=C1N[C@@H]2C(=C[C@H](O)[C@@H](O)[C@H]2O)c2cc3c(c(O)c21)OCO3", "Result type": "inhibition zone (IZ)", "Measured number": 0}
{"Molecule": "Oc1ccc2c3c1c1cc4c(cc1c[n+]3CC2)OCO4.[Cl-]", "Result type": "inhibition zone (IZ)", "Measured number": 0}
{"Molecule": "O=c1c2cc3c(cc2c2cccc4c2n1CC4)OCO3", "Result type": "inhibition zone (IZ)", "Measured number": 9}
{"Molecule": "O[C@H]1[C@H]2c3cc4c(cc3CN3CCC(=C[C@@H]1O)[C@H]23)OCO4", "Result type": "inhibition zone (IZ)", "Measured number": 0}
{"Molecule": "c1cc2c3c(c1)-c1cc4c(cc1CN3CC2)OCO4 [ANHYDROLYCORINE]", "Result type": "inhibition zone (IZ)", "Measured number": 15}
{"Molecule": "[O-]c1cc2c3c(c1)c1cc4c(cc1c[n+]3CC2)OCO4", "Result type": "inhibition zone (IZ)", "Measured number": 0}

### Prompt Using the record for [Cl-].c1cc2c3c(c1)c1cc4c(cc1c[n+]3CC2)OCO4 [ANHYDROLYCORINIUM CHLORIDE] , report its inhibition zone (IZ).
### Response 16

### Prompt And for Oc1cc2c3c(c1)c1cc4c(cc1c[n+]3CC2)OCO4.[Cl-] ?
### Response 0

Reference source for all entries: ChEMBL document CHEMBL1151658
